Where do these numbers come from? They come from ChEMBL document CHEMBL4339186.

procedure.text: Inhibition of synthetic AcPHF6 peptide aggregation in pH 7.4 phosphate buffer assessed as reduction in fluorescence intensity at 50 uM and measured every minute over 2 hrs with 5 secs shaking prior to each reading by ThT fluorescence assay
The source made the active and inactive calls. No cut-off for these calls is given here.

- input.smiles: "N#C/C(=C\\c1cc(O)c(O)c([N+](=O)[O-])c1)C(=O)OCCc1ccccc1"
  inhibition: "74.4%"
- input.smiles: "CCOC(=O)/C=C/c1cc(O)c(O)c([N+](=O)[O-])c1"
  inhibition: "44%"
- input.smiles: "CCOC(=O)C(=Cc1ccc(O)c(O)c1)C(=O)OCC"
  inhibition: "inactive"
- input.smiles: "O=C(O)C(=Cc1cc(O)c(O)c([N+](=O)[O-])c1)C(=O)O"
  inhibition: "inactive"
- input.smiles: "O=C(/C=C/c1ccc(O)c(O)c1)OCCc1ccccc1"
  inhibition: "17%"
- input.smiles: "O=C(O)c1cc(O)c(O)c(O)c1"
  inhibition: "inactive"
- input.smiles: "CCOC(=O)/C=C/c1cc(O)c(O)c(O)c1"
  inhibition: "21%"
- input.smiles: "CCOC(=O)C(=Cc1cc(O)c(O)c([N+](=O)[O-])c1)C(=O)OCC"
  inhibition: "41%"
- input.smiles: "CCOC(=O)/C=C/c1ccc(O)cc1"
  inhibition: "inactive"
- input.smiles: "CCN(CC)C(=O)/C(C#N)=C/c1cc(O)c(O)c([N+](=O)[O-])c1"
  inhibition: "60.3%"
- input.smiles: "O=C(/C=C/c1cc(O)c(O)c([N+](=O)[O-])c1)OCCc1ccccc1"
  inhibition: "55.2%"
